biological target: human LPA1 (Homo sapiens, UniProt Q92633); construct: expressed in transfected cells; host or cells: Chinese hamster ovary (CHO) cells; experiment: LPA1 functional antagonist assay (LPA-induced calcium flux); format: cell-based; details: human LPA1; read-out: hLPA1 IC50
Sequence (Q92633 whole entry): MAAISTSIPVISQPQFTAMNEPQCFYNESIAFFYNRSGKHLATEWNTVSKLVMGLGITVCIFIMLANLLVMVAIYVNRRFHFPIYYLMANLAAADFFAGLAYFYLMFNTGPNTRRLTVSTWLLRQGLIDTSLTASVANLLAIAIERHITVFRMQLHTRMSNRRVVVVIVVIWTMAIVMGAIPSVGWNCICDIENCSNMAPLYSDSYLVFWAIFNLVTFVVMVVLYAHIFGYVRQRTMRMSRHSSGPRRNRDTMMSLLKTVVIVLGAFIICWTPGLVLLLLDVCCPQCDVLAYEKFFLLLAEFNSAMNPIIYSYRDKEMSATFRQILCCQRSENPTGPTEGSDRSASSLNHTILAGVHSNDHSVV
pIC50: −log10 of the molar value.
property.label: pIC50

Take a look at these entries with their results.
Cc1nc(-c2nnn(C)c2COC(=O)N2CCC3(CC2)CC3)ccc1O[C@H]1CCC[C@H](C(=O)O)C1 [Example 171] : 6.79
Cc1nc(-c2nnn(C)c2COC(=O)N(C)CC2(F)CCC2)ccc1O[C@H]1CCC[C@H](C(=O)O)C1 [Example 189] : 6.92
CCC1CCN(C(=O)OCc2c(-c3ccc(O[C@H]4CCC[C@H](C(=O)O)C4)c(C)n3)nnn2C)C1 (mixture of isomers) [Example 165] : 6.99
CN(C(=O)OCc1c(-c2ccc(O[C@H]3CCC[C@H](C(=O)O)C3)cn2)nnn1C)C1CC2(CCC2)C1 [Example 180] : 7.21
Cc1nc(-c2nnn(C)c2COC(=O)N2CCC(C3CC3)C2)ccc1O[C@H]1CCC[C@H](C(=O)O)C1 (mixture of isomers) [Example 164] : 7.08

[I] Cc1nc(-c2nnn(C)c2COC(=O)N(C)CC2CC2(C)C)ccc1O[C@H]1CCC[C@H](C(=O)O)C1 (mixture of isomers) [Example 184]
[II] CN(C(=O)OCc1c(-c2ccc(O[C@H]3CCC[C@H](C(=O)O)C3)cn2)nnn1C)C1CC2(CC2)C1 [Example 183]
# query: argmin of pIC50 over I and II Output the label that corresponds to your choice. I
(I: 7.43, II: 7.70)

[P] Cc1nc(-c2nnn(C)c2COC(=O)N(C)CCC(C)(C)F)ccc1O[C@H]1CCC[C@H](C(=O)O)C1 [Example 187]
[Q] CN(CC1CC1(C)C)C(=O)OCc1c(-c2ccc(O[C@H]3CCC[C@H](C(=O)O)C3)cn2)nnn1C (mixture of isomers) [Example 185]
[R] CC(C)=CCN(C)C(=O)OCc1c(-c2ccc(O[C@H]3CCC[C@H](C(=O)O)C3)c(C)n2)nnn1C [Example 177]
[S] Cc1nc(-c2nnn(C)c2COC(=O)N(C)C(C)(C)C)ccc1O[C@H]1CCC[C@H](C(=O)O)C1 [Example 170]
Please list the entries, largest pIC50 first. List the labels in the requested order. R, P, Q, S
(R: 7.68, P: 7.30, Q: 7.07, S: 6.74)

Each recorded value in this set is attributed to patent US10576062B2.
